The reported measurements were obtained from patent US20260116991A1.

Molecular target: biotinylated labeled human GPC3 protein (produced in-house) (human, UniProt P51654 25-559, limits assumed, biotinylated (Dojindo, Cat. No. LK03); sites not stated)
Assay: ELISA, biotinylated human GPC3 protein
QUANTITY_MEASURED: OD450 at 0.002 nM
Show the value, then the unit it is measured in.

I have this binder here, hAb007LH1L1e (antibody, human IgG1, V domains shown, Humanized F3.81.19; VH H1 + VL L1e; expressed as human IgG1) VH: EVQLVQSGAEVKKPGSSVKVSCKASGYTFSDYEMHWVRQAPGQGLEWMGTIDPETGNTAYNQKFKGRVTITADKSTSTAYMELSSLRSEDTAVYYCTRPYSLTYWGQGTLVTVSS VL: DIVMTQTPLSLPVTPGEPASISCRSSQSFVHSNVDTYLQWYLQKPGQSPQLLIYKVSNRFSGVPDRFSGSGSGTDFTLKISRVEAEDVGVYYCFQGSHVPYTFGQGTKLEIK , and I need its recorded OD450 at 0.002 nM.
0.05 OD450

I have this binder here, hAb006LH3L1c (antibody, human IgG1, V domains shown, Humanized F3.38.7; VH H3 + VL L1c; expressed as human IgG1) VH: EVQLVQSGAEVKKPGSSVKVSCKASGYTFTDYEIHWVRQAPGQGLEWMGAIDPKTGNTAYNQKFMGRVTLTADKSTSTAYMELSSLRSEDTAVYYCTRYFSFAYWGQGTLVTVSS VL: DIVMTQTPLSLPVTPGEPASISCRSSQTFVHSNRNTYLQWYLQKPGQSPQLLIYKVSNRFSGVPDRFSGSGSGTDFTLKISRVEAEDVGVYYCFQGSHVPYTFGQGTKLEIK , and I need its recorded OD450 at 0.002 nM.
0.102 OD450

I have this binder here, hAb007LH1L1c (antibody, human IgG1, V domains shown, Humanized F3.81.19; VH H1 + VL L1c; expressed as human IgG1) VH: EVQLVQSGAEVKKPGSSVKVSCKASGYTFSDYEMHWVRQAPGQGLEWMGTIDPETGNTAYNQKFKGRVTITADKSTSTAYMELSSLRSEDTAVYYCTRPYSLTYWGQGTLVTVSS VL: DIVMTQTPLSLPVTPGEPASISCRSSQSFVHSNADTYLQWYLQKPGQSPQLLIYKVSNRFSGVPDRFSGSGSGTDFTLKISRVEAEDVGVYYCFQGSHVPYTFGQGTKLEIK , and I need its recorded OD450 at 0.002 nM.
0.064 OD450

I have this binder here, GC33 IgG (antibody, V domains shown, Control antibody expressed as complete IgG; also called codrituzumab) VH: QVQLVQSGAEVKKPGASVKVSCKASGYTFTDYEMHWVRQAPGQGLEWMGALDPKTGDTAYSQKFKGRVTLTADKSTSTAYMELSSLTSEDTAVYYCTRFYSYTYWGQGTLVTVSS VL: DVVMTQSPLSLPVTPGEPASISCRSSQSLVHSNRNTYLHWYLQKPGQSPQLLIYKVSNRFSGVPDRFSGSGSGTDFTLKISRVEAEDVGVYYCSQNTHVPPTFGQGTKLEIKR , and I need its recorded OD450 at 0.002 nM.
0.067 OD450

I have this binder here, hAb007LH1L1d (antibody, human IgG1, V domains shown, Humanized F3.81.19; VH H1 + VL L1d; expressed as human IgG1) VH: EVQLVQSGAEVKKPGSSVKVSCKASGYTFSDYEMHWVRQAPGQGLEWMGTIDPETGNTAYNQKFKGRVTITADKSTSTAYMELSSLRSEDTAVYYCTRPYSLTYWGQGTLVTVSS VL: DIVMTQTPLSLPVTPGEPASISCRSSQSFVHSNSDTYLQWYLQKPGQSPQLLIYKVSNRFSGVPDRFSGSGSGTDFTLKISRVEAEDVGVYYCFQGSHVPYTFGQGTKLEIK , and I need its recorded OD450 at 0.002 nM.
0.057 OD450

I have this binder here, hAb006LH3L1e (antibody, human IgG1, V domains shown, Humanized F3.38.7; VH H3 + VL L1e; expressed as human IgG1) VH: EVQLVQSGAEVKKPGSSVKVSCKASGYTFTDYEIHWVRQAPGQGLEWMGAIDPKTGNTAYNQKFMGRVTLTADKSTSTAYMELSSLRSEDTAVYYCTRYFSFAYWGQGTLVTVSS VL: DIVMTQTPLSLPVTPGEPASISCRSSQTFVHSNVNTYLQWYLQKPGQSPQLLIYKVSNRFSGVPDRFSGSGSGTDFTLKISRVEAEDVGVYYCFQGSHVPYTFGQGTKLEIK , and I need its recorded OD450 at 0.002 nM.
0.085 OD450

I have this binder here, hAb006LH3L1d (antibody, human IgG1, V domains shown, Humanized F3.38.7; VH H3 + VL L1d; expressed as human IgG1) VH: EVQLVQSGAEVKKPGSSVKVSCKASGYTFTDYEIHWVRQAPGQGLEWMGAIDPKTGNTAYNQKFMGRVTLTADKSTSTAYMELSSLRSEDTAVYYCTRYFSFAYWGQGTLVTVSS VL: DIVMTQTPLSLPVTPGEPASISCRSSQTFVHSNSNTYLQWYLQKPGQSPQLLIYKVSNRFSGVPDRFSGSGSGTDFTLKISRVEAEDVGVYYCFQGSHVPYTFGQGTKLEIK , and I need its recorded OD450 at 0.002 nM.
0.096 OD450
